System: Acinetobacter baumannii
Assay: Antibacterial activity against Acinetobacter baumannii ATCC19606 incubated for 18 to 20 hrs in presence of 1% of human serum by microbroth dilution method
Type: functional
Details: time 18-20 hrs
endpoint name: MIC95 (µM)

[a] O=C(CCCOc1ccc(NS(=O)(=O)c2cnn(-c3ccc(Cl)cc3)c2)c(C(=O)O)c1)Nc1ccc(NS(=O)(=O)c2cnn(-c3ccc(Cl)cc3)c2)c(C(=O)O)c1
[b] O=C(CCCOc1ccc(NS(=O)(=O)CCc2ccc(F)cc2)c(C(=O)O)c1)Nc1ccc(NS(=O)(=O)CCc2ccc(F)cc2)c(C(=O)O)c1
Req: Between the entries labeled a and b , whose measured MIC95 is lower? Selection: enter the item's label.
Resp: a

Source: ChEMBL document CHEMBL5584343
